These entries and their values trace back to patent US20260242395A1.

Target: CDK4/CyclinD1 (Homo sapiens, UniProt P11802)
Sequence (P11802 whole entry): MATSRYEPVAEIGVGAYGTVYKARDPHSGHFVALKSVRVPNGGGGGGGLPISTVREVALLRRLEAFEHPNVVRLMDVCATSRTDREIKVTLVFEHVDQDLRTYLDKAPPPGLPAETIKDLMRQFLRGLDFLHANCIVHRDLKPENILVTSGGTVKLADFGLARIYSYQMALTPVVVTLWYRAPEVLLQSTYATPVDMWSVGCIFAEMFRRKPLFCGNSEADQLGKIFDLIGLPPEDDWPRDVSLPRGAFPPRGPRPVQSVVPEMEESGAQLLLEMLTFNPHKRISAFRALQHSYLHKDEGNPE
Sequence (P24385 whole entry partner): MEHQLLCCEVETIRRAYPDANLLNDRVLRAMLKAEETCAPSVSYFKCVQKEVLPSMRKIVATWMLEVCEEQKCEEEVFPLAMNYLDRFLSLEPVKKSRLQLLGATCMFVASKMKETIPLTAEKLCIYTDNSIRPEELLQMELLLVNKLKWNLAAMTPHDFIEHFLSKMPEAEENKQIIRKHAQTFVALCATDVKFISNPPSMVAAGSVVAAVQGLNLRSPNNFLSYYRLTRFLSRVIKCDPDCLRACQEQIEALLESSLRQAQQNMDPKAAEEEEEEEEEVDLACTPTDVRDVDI
Experiment: CDK4/CyclinD1 kinase inhibitory activity (Caliper mobility shift)
Settings: enzyme 20 nM, ATP 672 uM, 28° C. 30 min; read-out: CDK4/Cyclin D1 IC50
RECORDED METRIC: IC50

Completed entries (count: 3):
# input compound: CNC(C)c1cnc2c(F)cc(-c3nc(N[C@@H]4CCOC[C@H]4O)ncc3Cl)cc2c1Cl (single isomer, unassigned) [Example 63a] ; wanted: its IC50 10 to 100 nM

# input compound: O[C@@H]1COCC[C@H]1Nc1ncc(Cl)c(-c2cc(F)c3ncc4c(c3c2)C2CCC(C4)N2)n1 (single isomer, unassigned) [Example 20a] ; wanted: its IC50 100 to 1000 nM

# input compound: `Cc1n[nH]c2cnc3ccc(-c4nc(N[C@@H]5CCOC[C@H]5O)ncc4Cl)cc3c12` ; wanted: its IC50 10 to 100 nM

New cases:
# input compound: `Cc1c(C(C)(C)O)nnc2c(F)cc(-c3nc(N[C@@H]4CCOC[C@H]4O)ncc3Cl)cc12` ; wanted: its IC50 10 to 100 nM

# input compound: `CC(C)(O)c1cnc2c(F)cc(-c3nc(N[C@@H]4CCOC[C@H]4O)ncc3C#N)cc2c1` ; wanted: its IC50 10 to 100 nM

# input compound: CNC(C)c1cc2cc(-c3nc(N[C@@H]4CCOC[C@H]4O)ncc3F)cc(F)c2nc1C (single isomer, unassigned) [Example 54a] ; wanted: its IC50 < 10 nM

# input compound: `CC1(C)Cc2cnc3c(F)cc(-c4nc(N[C@@H]5CCOC[C@H]5O)ncc4Cl)cc3c2CN1` ; wanted: its IC50 < 10 nM

# input compound: `CC(C)(O)c1cnc2c(F)cc(-c3nc(N[C@@H]4CCOC[C@H]4O)ncc3Cl)cc2c1Cl` ; wanted: its IC50 < 10 nM

# input compound: CC(C)(O)C1COc2c(F)cc(-c3nc(N[C@@H]4CCOC[C@H]4O)ncc3Cl)cc2C1 (some centres unmarked) [Example 47] ; wanted: its IC50 10 to 100 nM

# input compound: `[2H]c1nc(N[C@@H]2CCOC[C@H]2O)nc(-c2cc(F)c3nc([2H])c4c(c3c2)CNC2(CC2)C4)c1F` ; wanted: its IC50 < 10 nM

# input compound: `O[C@@H]1COCC[C@H]1Nc1ncc(Cl)c(-c2cc(F)c3ncc(C4(O)CC4)c(Cl)c3c2)n1` ; wanted: its IC50 < 10 nM

# input compound: CC1(C)NCc2c(cnc3c(F)cc(-c4nc(N[C@@H]5CCOC[C@H]5O)ncc4F)cc23)C1O (single isomer, unassigned) [Example 106a] ; wanted: its IC50 < 10 nM

# input compound: CC1NCCc2cnc3c(F)cc(-c4nc(N[C@@H]5CCOC[C@H]5O)ncc4Cl)cc3c21 (single isomer, unassigned) [Example 31a] ; wanted: its IC50 10 to 100 nM

# input compound: CNC(C)c1cnc2c(F)cc(-c3nc(N[C@@H]4CCOC[C@H]4O)ncc3Cl)cc2c1C (single isomer, unassigned) [Example 48b] ; wanted: its IC50 10 to 100 nM

###

Target: CDK9/CyclinT1 (Homo sapiens, UniProt P50750)
Sequence (P50750 whole entry): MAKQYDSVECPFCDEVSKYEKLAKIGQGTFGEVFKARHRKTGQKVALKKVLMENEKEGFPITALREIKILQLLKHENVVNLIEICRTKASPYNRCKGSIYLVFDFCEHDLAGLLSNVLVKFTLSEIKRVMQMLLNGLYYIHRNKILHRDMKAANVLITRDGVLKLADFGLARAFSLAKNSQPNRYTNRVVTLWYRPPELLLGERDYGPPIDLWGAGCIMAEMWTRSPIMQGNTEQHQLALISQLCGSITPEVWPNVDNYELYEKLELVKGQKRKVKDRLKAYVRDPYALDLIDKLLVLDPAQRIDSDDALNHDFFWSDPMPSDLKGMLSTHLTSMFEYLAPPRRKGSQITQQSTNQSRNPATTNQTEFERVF
Sequence (O60563 whole entry partner): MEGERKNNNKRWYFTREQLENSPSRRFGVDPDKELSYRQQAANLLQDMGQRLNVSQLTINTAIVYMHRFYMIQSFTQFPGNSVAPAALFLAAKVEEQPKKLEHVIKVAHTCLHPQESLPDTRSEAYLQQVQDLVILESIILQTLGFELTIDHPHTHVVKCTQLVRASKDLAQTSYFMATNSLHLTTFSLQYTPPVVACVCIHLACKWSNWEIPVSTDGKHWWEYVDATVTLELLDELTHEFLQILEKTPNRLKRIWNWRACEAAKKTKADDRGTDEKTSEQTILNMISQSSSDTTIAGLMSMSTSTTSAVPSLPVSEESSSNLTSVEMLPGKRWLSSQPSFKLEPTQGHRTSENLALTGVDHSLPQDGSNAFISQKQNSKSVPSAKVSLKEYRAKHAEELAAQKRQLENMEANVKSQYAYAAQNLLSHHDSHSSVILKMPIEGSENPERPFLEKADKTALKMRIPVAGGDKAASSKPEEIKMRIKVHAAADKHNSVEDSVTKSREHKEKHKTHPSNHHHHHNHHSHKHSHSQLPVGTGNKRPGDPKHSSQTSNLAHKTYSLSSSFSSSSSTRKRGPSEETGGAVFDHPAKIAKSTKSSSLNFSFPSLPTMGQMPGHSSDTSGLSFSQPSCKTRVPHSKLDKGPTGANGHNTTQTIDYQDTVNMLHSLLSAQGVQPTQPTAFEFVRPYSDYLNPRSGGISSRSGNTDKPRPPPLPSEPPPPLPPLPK
Assay: CDK9/CyclinT1 kinase inhibitory activity (Caliper mobility shift)
Details: enzyme 12.5 nM, ATP 10M, 28° C. 30 min; read-out: CDK9/Cyclin T1 IC50
RECORDED METRIC: IC50

Completed entries (count: 3):
# input compound: `[2H]c1nc2c(F)cc(-c3nc(N[C@@H]4CCOC[C@H]4O)ncc3C)cc2c2c1CC(C)(C)NC2` ; wanted: its IC50 100 to 1000 nM

# input compound: `[2H]c1nc(N[C@@H]2CCOC[C@H]2O)nc(-c2cc(F)c3nc([2H])c4c(c3c2)CNC2(CC2)C4)c1Cl` ; wanted: its IC50 100 to 1000 nM

# input compound: `CC(C)(O)c1cnc2c(F)cc(-c3nc(Nc4ccc(-c5c[nH]cn5)cn4)ncc3F)cc2c1Cl` ; wanted: its IC50 ≥ 1000 nM

New cases:
# input compound: `CC(C)(O)c1cnc2c(F)cc(-c3nc(N[C@@H]4CCOC[C@H]4O)ncc3Cl)cc2c1Cl` ; wanted: its IC50 100 to 1000 nM

# input compound: `Cc1nc2c(F)cc(-c3nc(N[C@@H]4CCOC[C@H]4O)ncc3Cl)cc2cc1C(C)(C)O` ; wanted: its IC50 100 to 1000 nM

# input compound: Cc1nc2c(F)cc(-c3nc(N[C@@H]4CCOC[C@H]4O)ncc3Cl)cc2cc1C(C)NC1CC1 (single isomer, unassigned) [Example 73b] ; wanted: its IC50 100 to 1000 nM

###

Quick list: pIC50 per entry.
Target: CDK9/CyclinT1 (Homo sapiens, UniProt P50750)
Experiment: CDK9/CyclinT1 kinase inhibitory activity (Caliper mobility shift)
Settings: enzyme 12.5 nM, ATP 10M, 28° C. 30 min; read-out: CDK9/Cyclin T1 IC50
pIC50: −log10 of the molar value.

# input compound: `[2H]C([2H])([2H])C(O)(c1cc2cc(-c3nc(N[C@@H]4CCOC[C@H]4O)ncc3Cl)cc(F)c2nc1C)C([2H])([2H])[2H]` ; wanted: its pIC50 6.00 to 7.00

New cases:
# input compound: `[2H]c1nc(N[C@@H]2CCOC[C@H]2O)nc(-c2cc(F)c3nc(C)c(C(C)(C)O)cc3c2)c1F` ; wanted: its pIC50 6.00 to 7.00

# input compound: CC(O)c1cnc2c(F)cc(-c3nc(N[C@@H]4CCOC[C@H]4O)ncc3Cl)cc2c1Cl (single isomer, unassigned) [Example 40a] ; wanted: its pIC50 6.00 to 7.00

###

Target: CDK7/CyclinH/MAT1 (Homo sapiens, UniProt P50613)
Sequence (P50613 whole entry): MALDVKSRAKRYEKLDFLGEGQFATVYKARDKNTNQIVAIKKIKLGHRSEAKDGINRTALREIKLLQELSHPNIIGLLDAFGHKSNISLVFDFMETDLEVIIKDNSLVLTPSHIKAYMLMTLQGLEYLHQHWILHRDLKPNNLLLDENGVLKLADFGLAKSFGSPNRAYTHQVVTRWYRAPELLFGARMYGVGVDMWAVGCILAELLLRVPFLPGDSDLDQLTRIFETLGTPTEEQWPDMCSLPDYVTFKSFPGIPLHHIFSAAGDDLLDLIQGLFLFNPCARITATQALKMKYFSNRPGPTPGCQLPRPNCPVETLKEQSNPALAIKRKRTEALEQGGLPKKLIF
Sequence (P51946 whole entry partner): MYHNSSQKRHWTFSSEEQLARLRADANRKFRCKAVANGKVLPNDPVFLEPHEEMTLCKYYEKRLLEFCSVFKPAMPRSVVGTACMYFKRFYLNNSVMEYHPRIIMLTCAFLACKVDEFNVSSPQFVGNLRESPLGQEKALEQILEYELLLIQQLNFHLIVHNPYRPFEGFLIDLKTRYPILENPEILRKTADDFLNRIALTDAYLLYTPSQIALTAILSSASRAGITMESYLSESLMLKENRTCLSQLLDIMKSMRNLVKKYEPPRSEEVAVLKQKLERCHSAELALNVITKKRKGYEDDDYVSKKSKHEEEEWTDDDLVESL
Sequence (P51948 whole entry partner): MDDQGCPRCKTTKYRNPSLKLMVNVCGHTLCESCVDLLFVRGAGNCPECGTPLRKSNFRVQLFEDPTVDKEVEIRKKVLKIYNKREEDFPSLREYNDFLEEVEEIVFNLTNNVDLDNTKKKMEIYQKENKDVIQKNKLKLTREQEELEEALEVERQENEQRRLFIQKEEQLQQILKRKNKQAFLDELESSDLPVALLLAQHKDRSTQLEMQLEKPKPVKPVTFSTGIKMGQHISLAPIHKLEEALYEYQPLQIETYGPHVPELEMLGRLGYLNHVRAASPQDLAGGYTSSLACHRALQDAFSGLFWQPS
Assay: CDK7/CyclinH/MAT1 kinase inhibitory activity (Caliper mobility shift)
Conditions: enzyme 12.5 nM, ATP 70 μM, 28° C. 30 min; read-out: CDK7/Cyclin H/MAT1 IC50
RECORDED METRIC: IC50

Completed entries (count: 5):
# input molecule: [2H]c1nc2c(F)cc(-c3nc(N[C@@H]4CCOC[C@H]4O)ncc3C)cc2c2c1CC1(CC1)NC2 [Example 67] ; wanted: its IC50 ≥ 1 µM

# input molecule: CC1Cc2cnc3c(F)cc(-c4nc(N[C@@H]5CCOC[C@H]5O)ncc4Cl)cc3c2CN1 (single isomer, unassigned) [Example 34a] ; wanted: its IC50 0.1 to 1 µM

# input molecule: Cc1nc2c(F)cc(-c3nc(N[C@@H]4CCOC[C@H]4O)ncc3Cl)cc2cc1C1CCCN1 (single isomer, unassigned) [Example 57a] ; wanted: its IC50 ≥ 1 µM

# input molecule: Cc1c(C(C)(C)O)cnc2c(F)cc(-c3nc(N[C@@H]4CCOC[C@H]4O)ncc3Cl)cc12 [Example 7] ; wanted: its IC50 ≥ 1 µM

# input molecule: CC1(C)Cc2cnc3c(F)cc(-c4nc(N[C@@H]5CCOC[C@H]5O)ncc4F)cc3c2CN1 [Example 24] ; wanted: its IC50 0.1 to 1 µM

New cases:
# input molecule: CC1(C)Cc2cnc3c(F)cc(-c4ccnc(N[C@@H]5CCOC[C@H]5O)n4)cc3c2CN1 [Example 107] ; wanted: its IC50 0.1 to 1 µM

###

Molecular target: CDK1/CyclinB (Homo sapiens)
Sequence (P06493 whole entry): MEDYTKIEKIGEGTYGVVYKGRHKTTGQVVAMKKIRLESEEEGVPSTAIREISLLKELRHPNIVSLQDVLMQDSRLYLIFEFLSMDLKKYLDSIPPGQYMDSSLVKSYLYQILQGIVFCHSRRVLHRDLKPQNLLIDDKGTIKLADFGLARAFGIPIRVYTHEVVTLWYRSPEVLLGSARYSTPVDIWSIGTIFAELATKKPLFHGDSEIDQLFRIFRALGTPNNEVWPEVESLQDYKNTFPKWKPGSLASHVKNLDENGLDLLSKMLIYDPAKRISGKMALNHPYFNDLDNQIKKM
Sequence (P14635 whole entry partner): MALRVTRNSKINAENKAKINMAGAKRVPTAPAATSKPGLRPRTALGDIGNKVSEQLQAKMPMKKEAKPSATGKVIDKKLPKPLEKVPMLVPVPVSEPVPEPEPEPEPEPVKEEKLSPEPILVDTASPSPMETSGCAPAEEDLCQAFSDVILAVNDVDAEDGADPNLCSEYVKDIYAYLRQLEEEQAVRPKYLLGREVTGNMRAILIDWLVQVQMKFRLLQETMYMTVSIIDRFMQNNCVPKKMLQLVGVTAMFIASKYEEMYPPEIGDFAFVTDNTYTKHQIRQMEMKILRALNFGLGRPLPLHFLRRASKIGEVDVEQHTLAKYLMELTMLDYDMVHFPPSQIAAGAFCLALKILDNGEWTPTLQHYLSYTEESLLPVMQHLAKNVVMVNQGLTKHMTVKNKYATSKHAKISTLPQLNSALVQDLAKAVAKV
Test: CDK1/CyclinB kinase inhibitory activity (Caliper mobility shift)
Settings: enzyme 3 nM, ATP 20 μM, 28° C. 30 min; read-out: CDK1/Cyclin B1 IC50
Protocol: CDK1/CyclinB kinase inhibitory activity (IC50): 5 μl of various dilutions of test compound in 1× kinase buffer (50 mM HEPES pH 7.5, 10 mM MgCl2, 2 mM DTT and 0.01% Brij-35) was mixed with 10 μL of CDK1/CyclinB (Millipore, 14-450M #, final concentration 3 nM in 1× Kinase buffer) in 384 plates and incubated at room temperature for 10 min. […]
RECORDED METRIC: IC50

Completed entries (count: 3):
# input compound: `[2H]c1nc(N[C@@H]2CCOC[C@H]2O)nc(-c2cc(F)c3nc([2H])c4c(c3c2)CNC2(CC2)C4)c1Cl` ; wanted: its IC50 100 to 1000 nM

# input compound: `O[C@@H]1COCC[C@H]1Nc1ncc(Cl)c(-c2cc(F)c3c(c2)N2CCNC[C@@H]2CO3)n1` ; wanted: its IC50 10 to 100 nM

# input compound: `CC(C)(O)c1cnc2c(F)cc(-c3nc(Nc4ccc(-c5c[nH]cn5)cn4)ncc3F)cc2c1Cl` ; wanted: its IC50 ≥ 1000 nM

New cases:
# input compound: `CC1(C)Cc2cnc3c(F)cc(-c4ccnc(N[C@@H]5CCOC[C@H]5O)n4)cc3c2CN1` ; wanted: its IC50 100 to 1000 nM

# input compound: Cc1nc2c(F)cc(-c3nc(N[C@@H]4CCOC[C@H]4O)ncc3Cl)cc2c(C)c1[C@@H](C)O (single isomer, unassigned) [Example 15a] ; wanted: its IC50 100 to 1000 nM

# input compound: `Cc1nc2c(F)cc(-c3nc(N[C@@H]4CCOC[C@H]4O)ncc3Cl)cc2c2c1CC(C)(C)NC2` ; wanted: its IC50 ≥ 1000 nM

# input compound: `O[C@@H]1COCC[C@H]1Nc1ncc(F)c(-c2cc(F)c3ncc4c(c3c2)CNC2(CC2)C4)n1` ; wanted: its IC50 10 to 100 nM
